System: WEHI 231 cells
experiment: TUNEL analysis of Actinomycin D induced apoptosis, flow cytometry
Format: cell-based, murine
conditions: 20 μM inhibitor + ActD, WEHI 231
Peptide text beside a SMILES is read from it. * marks the point of attachment. Cbz = O=C(OCc1ccccc1)*; CH2F = FC*
Rule: % non-viable cells below 20% gives true, anything at or above gives false.

- COC(=O)CC(NC(=O)CCNC(=O)c1ccc2ccccc2n1)C(=O)CF (stereo not drawn): false
- COC(=O)CC(NC(=O)C(NC(=O)c1ccc2ccccc2n1)C(C)C)C(=O)COc1c(F)cccc1F (stereo not drawn): true
- COC(=O)CC(NC(=O)C(C)NC(=O)c1ccc2ccccc2n1)C(=O)CF (stereo not drawn): true
- COC(=O)CC(NC(=O)C(CC(C)C)NC(=O)c1ccc2ccccc2n1)C(=O)COc1ccccc1 (stereo not drawn): true
- COC(=O)CC(NC(=O)C(C)NC(=O)C(NC(=O)OCc1ccccc1)C(C)C)C(=O)COc1c(F)cccc1F (stereo not drawn): false

Consider the additional molecule presented here.
Req: Is the reported % non-viable cells for COC(=O)CC(NC(=O)C(C)NC(=O)C(NC(=O)OCc1ccccc1)C(C)C)C(=O)CF (stereo not drawn) [Z-VAD-FMK, reference compound] (Cbz-Val-Ala-Asp(OMe)-CH2F; configuration not given here) strictly below 20%?
Resp: true

###

systemTested: caspase 3 (Homo sapiens, UniProt P42574)
Sequence (P42574 29-175 limits assumed, species assumed): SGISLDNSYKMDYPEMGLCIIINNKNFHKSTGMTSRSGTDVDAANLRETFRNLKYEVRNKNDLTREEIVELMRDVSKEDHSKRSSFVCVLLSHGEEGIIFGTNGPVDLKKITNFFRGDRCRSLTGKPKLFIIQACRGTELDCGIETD
Sequence (P42574 176-277 limits assumed, species assumed): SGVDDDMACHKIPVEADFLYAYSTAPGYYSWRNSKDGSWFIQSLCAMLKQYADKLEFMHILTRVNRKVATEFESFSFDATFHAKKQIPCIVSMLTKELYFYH
experiment: Caspase inhibition assay, AcDEVD-AFC substrate
Type: biochemical
conditions: Table 5; read-out: CASP-3 IC50
# IC50 per entry
Lab book: enter the figure in nM, no units written.

• COC(=O)CC(NC(=O)C(NC(=O)c1ccc2ccccc2n1)C(C)C)C(=O)COc1cc(N)ccc1C(=O)O (stereo not shown) = 1240
• COC(=O)C[C@H](NC(=O)[C@@H](NC(=O)c1ccc2ccccc2n1)C(C)C)C(=O)COC1=C(c2ccccc2)C(=O)OC1 = 250

Here is the next item to consider.
Req: Name the recorded IC50 for COC(=O)CC(NC(=O)C(NC(=O)c1ccc2ccccc2n1)C(C)C)C(=O)COc1ccccc1C(=O)O (stereo not shown) .
Resp: 500

###

As shown below, each of these molecules has a reported % non-viable cells value.
System: WEHI 231 cells
experiment: TUNEL analysis of Actinomycin D induced apoptosis, flow cytometry
Format: cell-based, murine
conditions: 50 μM inhibitor + ActD, WEHI 231
Answer format: numeric, % implied, no suffix.

Examples with their reported % non-viable cells follow.
* COC(=O)CC(NC(=O)C(C)NC(=O)C(NC(=O)OCc1ccccc1)C(C)C)C(=O)COc1c(F)cccc1F (stereo not drawn) | 56
* COC(=O)CC(NC(=O)C(C)NC(=O)c1ccc2ccccc2n1)C(=O)CF (stereo not drawn) | 2

Continue with the molecule presented below.
Req: Bench note: what % non-viable cells did COC(=O)CC(NC(=O)C(NC(=O)c1ccc2ccccc2n1)C(C)C)C(=O)COc1c(F)cccc1F (stereo not drawn) show?
Resp: 2

###

Tested on: WEHI 231 cells
experiment: TUNEL analysis, inhibitor alone (toxicity control)
Assay type: cell-based, murine
conditions: 100 μM Inh alone, no ActD
Peptide text beside a SMILES is read from it. * marks the point of attachment. Cbz = O=C(OCc1ccccc1)*; CH2F = FC*
% non-viable cells, inhibitor alone reference
Form entry: value (%) — number only.

* COC(=O)CC(NC(=O)C(C)NC(=O)c1ccc2ccccc2n1)C(=O)CF (stereo not drawn) [Inhibitor D^1, Q-Ala-Asp(OMe)-FMK] | 8
* COC(=O)CC(NC(=O)C(C)NC(=O)C(NC(=O)OCc1ccccc1)C(C)C)C(=O)COc1c(F)cccc1F (stereo not drawn) [Inhibitor G^1, 2-Val-Ala-Asp(OMe)—CH2—OPh] | 1
* COC(=O)CC(NC(=O)C(NC(=O)c1ccc2ccccc2n1)C(C)C)C(=O)COc1c(F)cccc1F (stereo not drawn) [Inhibitor I^1, Q-Val-Asp(OMe)—CH2—OPh] | 53
* COC(=O)CC(NC(=O)CCNC(=O)c1ccc2ccccc2n1)C(=O)CF (stereo not drawn) [Inhibitor A^1, Q-βAla-Asp(OMe)-FMK] | 5
* COC(=O)CC(NC(=O)C(CC(C)C)NC(=O)c1ccc2ccccc2n1)C(=O)COc1ccccc1 (stereo not drawn) [Inhibitor J^1, Q-Leu-Asp(OMe)—CH2—OPh] | 1

Kindly review the next molecule as well.
Req: So what does the record say about % non-viable cells, inhibitor alone for COC(=O)CC(NC(=O)C(C)NC(=O)C(NC(=O)OCc1ccccc1)C(C)C)C(=O)CF (stereo not drawn) [Z-VAD-FMK, reference compound] (Cbz-Val-Ala-Asp(OMe)-CH2F; configuration not given here) ?
Resp: 7

###

Test system: WEHI 231 cells
experiment: TUNEL analysis of Actinomycin D induced apoptosis, flow cytometry
Assay type: cell-based, murine
conditions: 10 μM inhibitor + ActD, WEHI 231
Peptide text beside a SMILES is read from it. * marks the point of attachment. Cbz = O=C(OCc1ccccc1)*; CH2F = FC*
observationType: % non-viable cells (%)
Write the value in % as a bare number.

Before answering, review these 3 worked examples.
* COC(=O)CC(NC(=O)C(NC(=O)c1ccc2ccccc2n1)C(C)C)C(=O)COc1c(F)cccc1F (stereo not drawn) [Inhibitor I^1, Q-Val-Asp(OMe)—CH2—OPh] | 2
* COC(=O)CC(NC(=O)C(C)NC(=O)C(NC(=O)OCc1ccccc1)C(C)C)C(=O)CF (stereo not drawn) [Z-VAD-FMK, reference compound] (Cbz-Val-Ala-Asp(OMe)-CH2F; configuration not given here) | 64
* COC(=O)CC(NC(=O)C(C)NC(=O)C(NC(=O)OCc1ccccc1)C(C)C)C(=O)COc1c(F)cccc1F (stereo not drawn) [Inhibitor G^1, 2-Val-Ala-Asp(OMe)—CH2—OPh] | 62

Req: Quick one: % non-viable cells of COC(=O)CC(NC(=O)C(CC(C)C)NC(=O)c1ccc2ccccc2n1)C(=O)COc1ccccc1 (stereo not drawn) [Inhibitor J^1, Q-Leu-Asp(OMe)—CH2—OPh] ?
Resp: 16

Req: Look up % non-viable cells for this molecule: COC(=O)CC(NC(=O)CCNC(=O)c1ccc2ccccc2n1)C(=O)CF (stereo not drawn) [Inhibitor A^1, Q-βAla-Asp(OMe)-FMK]
Resp: 57

Req: Using the record for COC(=O)CC(NC(=O)C(C)NC(=O)c1ccc2ccccc2n1)C(=O)CF (stereo not drawn) [Inhibitor D^1, Q-Ala-Asp(OMe)-FMK] , report its % non-viable cells.
Resp: 67

###

Reported % non-viable cells values for the following molecules.
System: WEHI 231 cells
experiment: TUNEL analysis of Actinomycin D induced apoptosis, flow cytometry
Assay type: cell-based, murine
conditions: 30 μM inhibitor + ActD, WEHI 231
Peptide text beside a SMILES is read from it. * marks the point of attachment. Cbz = O=C(OCc1ccccc1)*; CH2F = FC*
Just the number in %, nothing appended.

- COC(=O)CC(NC(=O)C(C)NC(=O)c1ccc2ccccc2n1)C(=O)CF (stereo not drawn) [Inhibitor D^1, Q-Ala-Asp(OMe)-FMK]: 2
- COC(=O)CC(NC(=O)C(C)NC(=O)C(NC(=O)OCc1ccccc1)C(C)C)C(=O)COc1c(F)cccc1F (stereo not drawn) [Inhibitor G^1, 2-Val-Ala-Asp(OMe)—CH2—OPh]: 52

Attention now turns to another entry.
Req: Recorded % non-viable cells for COC(=O)CC(NC(=O)C(C)NC(=O)C(NC(=O)OCc1ccccc1)C(C)C)C(=O)CF (stereo not drawn) [Z-VAD-FMK, reference compound] (Cbz-Val-Ala-Asp(OMe)-CH2F; configuration not given here) , please?
Resp: 19

###

System: WEHI 231 cells
experiment: TUNEL analysis of Actinomycin D induced apoptosis, flow cytometry
Format: cell-based, murine
conditions: 50 μM inhibitor + ActD, WEHI 231
Peptide text beside a SMILES is read from it. * marks the point of attachment. Cbz = O=C(OCc1ccccc1)*; CH2F = FC*
In this section we review reported % non-viable cells values for a set of compounds.
Returns: string containing the number followed by the unit.

Below: 2 compounds and their reported % non-viable cells.
• COC(=O)CC(NC(=O)C(C)NC(=O)C(NC(=O)OCc1ccccc1)C(C)C)C(=O)CF (stereo not drawn) [Z-VAD-FMK, reference compound] (Cbz-Val-Ala-Asp(OMe)-CH2F; configuration not given here) = 8%
• COC(=O)CC(NC(=O)C(CC(C)C)NC(=O)c1ccc2ccccc2n1)C(=O)COc1ccccc1 (stereo not drawn) = 2%

// switching to the query compound
Req: Param item = COC(=O)CC(NC(=O)CCNC(=O)c1ccc2ccccc2n1)C(=O)CF (stereo not drawn) ; retrieve measured % non-viable cells.
Resp: 32%

###

Reported % non-viable cells values are given for each entry in this list.
Tested on: WEHI 231 cells
experiment: TUNEL analysis of Actinomycin D induced apoptosis, flow cytometry
Assay type: cell-based, murine
conditions: 30 μM inhibitor + ActD, WEHI 231
# value in %; strip the unit string

Please review the following examples before continuing.
* COC(=O)CC(NC(=O)C(CC(C)C)NC(=O)c1ccc2ccccc2n1)C(=O)COc1ccccc1 (stereo not drawn) | 2
* COC(=O)CC(NC(=O)C(NC(=O)c1ccc2ccccc2n1)C(C)C)C(=O)COc1c(F)cccc1F (stereo not drawn) | 2

// switching to the query molecule
Req: # lookup: % non-viable cells of COC(=O)CC(NC(=O)CCNC(=O)c1ccc2ccccc2n1)C(=O)CF (stereo not drawn)
Resp: 40

Values from patent US20020052323A1
